Reported growth values for the following compounds.
System: SR leukemia
Test Name: NCI-60 one-dose screen, 48 h (100 = growth as untreated, 0 = no growth, -100 = all killed)
Applied Conditions: 10 µM unless noted
Description: Growth inhibition of the SR human tumor cell line is measured as a screen for anti-cancer activity. Cells are grown in 96 well plates and exposed to the test compound for 48 hours. Compounds are tested at a single concentration, which is 10^-5 M for most compounds. The reported endpoint is percent growth (GI% or GIPRCNT), where numbers from 0 - 100% represent growth inhibition, and numbers from -100% - 0 represent cell death. For example, a value of 40 represents 60% growth inhibition. […]
Compounds without any hit were thinned out: in the full panel of roughly 83,000, 20% have a hit.
Your answer should be a plain number; it is taken to be in %.

O=S(=O)(NCCCNc1nccc(-c2c(-c3ccc(F)c(O)c3)nc3sccn23)n1)c1ccccc1 ... 33.9
C#CCOc1cccc(Nc2ncnc3cc(NC(=O)C=C)ccc23)c1 ... 13
Cc1nc2sc(C(=O)Nc3cccc(Br)c3)c(N)c2cc1C(O)c1ccccc1 (stereo not given) ... 13.4
O=C(Nc1ccc(Oc2cccc(F)c2)c(Cl)c1)c1cccnc1 ... 23.8
c1ccc(-c2oc(-c3ccccc3)c(CN3CCCCC3)c2CN2CCCCC2)cc1 ... -2.07

So what does the record say about growth for N#CSCC1CC(O)(c2ccccc2)CC(c2ccc(F)cc2)O1 (stereo not given) ?
-29.6

Entry `O=[N+]([O-])c1ccc(O)cc1Br` please
99.1

// same read-out, input: `N#Cc1nc(-c2ccccc2)oc1S(=O)(=O)N1CCN(c2ccccc2)CC1`
14.7

Repeat with `COC(=O)c1nc(-c2ccc(C)cc2)oc1S(=O)(=O)c1cccc(OC)c1`
0.69

Now this one: `NC(=O)CSc1oc(-c2ccccc2)nc1S(=O)(=O)c1ccc(Br)cc1`
79.3

Now this one: CC(=O)N1N=C(c2ccc(Nc3nc(Nc4ccccc4)nc(Nc4ccccc4)n3)cc2)CC1c1ccccc1 (stereo not given)
62.3

Moving on to CCC(C)(C)C(=O)O[C@H]1C[C@@H](C)C=C2C=C[C@H](C)[C@H](CC[C@@H]3CC(SCCN)CC(=O)O3)[C@H]21 (stereo not given in full)
23.3

----------
Tested on: NCI-H322M lung
Test Name: NCI-60 one-dose screen, 48 h (100 = growth as untreated, 0 = no growth, -100 = all killed)
Applied Conditions: 10 µM unless noted
About 83,000 compounds went through this panel and 20% of them were active in at least one assay; those are over-represented in the sample as a whole.
The following compounds are listed with their measured growth values.
Give the number; % is assumed, so skip it.

Worked set:
CC1=C2[C@@H](CC1)[C@]1(C)O[C@@](C(C)C)(C[C@H]1OC(=O)[C@H](C)O)[C@H]2OC(=O)/C=C/c1ccccc1 ... 85.9
O=C1/C(=C/c2ccc([N+](=O)[O-])cc2)COc2ccc(O)cc21 ... 91.9

Give its growth value. Item: `N#Cc1c(-c2ccccc2)cc(-c2ccc(Nc3nc(Nc4ccc(Cl)cc4)nc(Nc4ccc(Cl)cc4)n3)cc2)nc1N`
87

Please give the result for `O=C(/C=C/c1cccc(Cl)c1)c1ccc(Nc2nc(Nc3ccc(F)cc3)nc(Nc3ccc(Cl)cc3)n2)cc1` too.
96.6

Queued: `C=C(C)[C@@H]1CC[C@]2(CO)CC[C@]3(C)[C@H](CC[C@@H]4[C@@]5(C)CC[C@H](NCO)C(C)(C)[C@@H]5CC[C@]43C)[C@@H]12`
-83.7

Do the same for `CC1CCN(CCOc2ccc(CNc3ccc4nc(CCC5CCCCC5)[nH]c4c3)cc2)CC1` please
58.5

And what about the compound `O=C(CN1C(=O)S/C(=C\C(Cl)=C\c2ccccc2)C1=O)NCCc1ccc(O)cc1` ?
75.2

Consider next the compound `N=C(N)c1ccc(-c2ccc(-c3ccc(Cl)cc3Cl)s2)cc1` in the same way.
13.9
